Each entry below carries its recorded koff.
assayed.system: SARS-COV-2 RBD extracellular domain expressed with a C-terminal mouse IgG2a Fc (SARS-CoV-2)
test.protocol: Biacore SPR, mAb captured on anti-hFc, 25 C
Use s⁻¹ as the unit, but write only the number.

Sample answers from the record:
binder="mAb15164 (antibody, V domains shown) VH: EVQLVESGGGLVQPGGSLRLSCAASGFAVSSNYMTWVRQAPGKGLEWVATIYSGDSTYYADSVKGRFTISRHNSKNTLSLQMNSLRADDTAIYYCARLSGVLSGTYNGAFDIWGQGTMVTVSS VL: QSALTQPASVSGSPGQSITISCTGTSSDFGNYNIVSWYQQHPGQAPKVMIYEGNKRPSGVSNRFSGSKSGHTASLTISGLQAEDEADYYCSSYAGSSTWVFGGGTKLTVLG" assay_metric=koff reading=2.12e-05
binder="mAb14286 (antibody, V domains shown) VH: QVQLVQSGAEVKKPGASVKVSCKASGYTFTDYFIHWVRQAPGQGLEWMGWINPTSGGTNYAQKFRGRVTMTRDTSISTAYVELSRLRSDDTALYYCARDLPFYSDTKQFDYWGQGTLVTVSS VL: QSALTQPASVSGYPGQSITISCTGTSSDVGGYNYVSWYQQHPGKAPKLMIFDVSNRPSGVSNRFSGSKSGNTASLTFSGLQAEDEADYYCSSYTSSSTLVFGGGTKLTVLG" assay_metric=koff reading=0.000655

Please look at the following binder next.
May I ask what koff has been recorded for mAb15159 (antibody, V domains shown) VH: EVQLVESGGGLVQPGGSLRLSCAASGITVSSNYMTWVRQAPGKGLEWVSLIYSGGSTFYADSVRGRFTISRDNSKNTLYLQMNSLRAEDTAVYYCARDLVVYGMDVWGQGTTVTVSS VL: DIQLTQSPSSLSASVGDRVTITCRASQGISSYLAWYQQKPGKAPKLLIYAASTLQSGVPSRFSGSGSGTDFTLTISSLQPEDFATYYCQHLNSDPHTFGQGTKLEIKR ?
1.19e-05
